# System: Hepatitis C virus
# method: Antiviral activity against HCV after 72 hrs by stable luciferase reporter gene assay
# Type: functional, organism-based, Hepacivirus hominis
Listed here: items and their measured EC90.
Kindly provide the numeric value in nM only, without the unit symbol.

| compoundString | targetEntity | units | EC90 |
| --- | --- | --- | --- |
| C/C=C/C[C@@H](C)[C@@H](O)[C@H]1C(=O)N[C@@H](CC)C(=O)N(C)CC(=O)N(C)[C@@H](CC(C)C)C(=O)N[C@@H](C(C)C)C(=O)N(C)[C@@H](CC(C)C)C(=O)N[C@@H](C)C(=O)N[C@H](CCN(C)C)C(=O)N(C)[C@@H](CC(C)C)C(=O)N(C)[C@@H](CC(C)C)C(=O)N(C)[C@@H](C(C)C)C(=O)N1C | Hepatitis C virus | nM | 300 |
| C/C=C/C[C@@H](C)[C@@H](O)[C@H]1C(=O)N[C@@H](CC)C(=O)N(C)CC(=O)N(C)[C@@H](CC(C)C)C(=O)N[C@@H](C(C)C)C(=O)N(C)[C@@H](CC(C)C)C(=O)N[C@@H](C)C(=O)N[C@H](CCCCN(C)C)C(=O)N(C)[C@@H](CC(C)C)C(=O)N(C)[C@@H](CC(C)C)C(=O)N(C)[C@@H](C(C)C)C(=O)N1C | Hepatitis C virus | nM | 300 |
| C/C=C/C[C@@H](C)[C@@H](O)[C@H]1C(=O)N[C@@H](CC)C(=O)N(C)CC(=O)N(C)[C@@H](CC(C)C)C(=O)N[C@@H](C(C)C)C(=O)N(C)[C@@H](CC(C)C)C(=O)N[C@@H](C)C(=O)N[C@H](CC#N)C(=O)N(C)[C@@H](CC(C)C)C(=O)N(C)[C@@H](CC(C)C)C(=O)N(C)[C@@H](C(C)C)C(=O)N1C | Hepatitis C virus | nM | 140 |
| C/C=C/C[C@@H](C)[C@@H](O)[C@H]1C(=O)N[C@@H](CC)C(=O)N(C)CC(=O)N(C)[C@@H](CC(C)C)C(=O)N[C@@H](C(C)C)C(=O)N(C)[C@@H](CC(C)C)C(=O)N[C@@H](C)C(=O)N[C@H](CN(C)C)C(=O)N(C)[C@@H](CC(C)C)C(=O)N(C)[C@@H](CC(C)C)C(=O)N(C)[C@@H](C(C)C)C(=O)N1C | Hepatitis C virus | nM | 670 |

# return recorded EC90 for entry `C/C=C/C[C@@H](C)[C@@H](O)[C@H]1C(=O)N[C@@H](CC)C(=O)N(C)CC(=O)N(C)[C@@H](CC(C)C)C(=O)N[C@@H](C(C)C)C(=O)N(C)[C@@H](CC(C)C)C(=O)N[C@@H](C)C(=O)N[C@H](CN)C(=O)N(C)[C@@H](CC(C)C)C(=O)N(C)[C@@H](CC(C)C)C(=O)N(C)[C@@H](C(C)C)C(=O)N1C` 820

# return recorded EC90 for entry `C/C=C/C[C@@H](C)[C@@H](O)[C@H]1C(=O)N[C@@H](CC)C(=O)N(C)CC(=O)N(C)[C@@H](CC(C)C)C(=O)N[C@@H](C(C)C)C(=O)N(C)[C@@H](CC(C)C)C(=O)N[C@@H](C)C(=O)N[C@H](CCN(CC)CC)C(=O)N(C)[C@@H](CC(C)C)C(=O)N(C)[C@@H](CC(C)C)C(=O)N(C)[C@@H](C(C)C)C(=O)N1C` 350

The reported measurements were obtained from ChEMBL document CHEMBL1269000.
